Items are presented alongside their recorded log10 of IC50.
- study_target: Glutamate receptor ionotropic, NMDA 1 (Rattus norvegicus)
- procedure_details: Inhibition of [3H]- glycine binding to NMDA receptor from rat cortical membranes.
- Assay type: cell membranes, Membrane
measurement_name: log10 of IC50 (log10 of the value in nM)

>  <structure_string>
O=C(O)[C@H]1C[C@H](N2C(=O)c3ccccc3C2=O)c2c(Cl)cc(Cl)cc2N1

>  <endpoint_result>
3.28

$$$$
>  <structure_string>
CC(=O)N[C@H]1C[C@H](C(=O)O)Nc2cc(Cl)cc(Cl)c21

>  <endpoint_result>
2.95

$$$$
>  <structure_string>
O=C(Cc1ccc(O)cc1)N[C@H]1C[C@H](C(=O)O)Nc2cc(Cl)cc(Cl)c21

>  <endpoint_result>
1.48

$$$$
>  <structure_string>
N#CN/C(=N\[C@H]1C[C@H](C(=O)O)Nc2cc(Cl)cc(Cl)c21)Nc1ccccc1

>  <endpoint_result>
2.76

$$$$
>  <structure_string>
O=C(Nc1ccccc1)N[C@H]1C[C@H](C(=O)O)Nc2cc(Cl)cc(I)c21

>  <endpoint_result>
0.78

$$$$
>  <structure_string>
COc1ccc(CC(=O)N[C@H]2C[C@H](C(=O)O)Nc3cc(Cl)cc(Cl)c32)cc1

>  <endpoint_result>
1.59

$$$$
>  <structure_string>
Cc1ccccc1NC(=O)N[C@H]1C[C@H](C(=O)O)Nc2cc(Cl)cc(Cl)c21

>  <endpoint_result>
0.86

$$$$
>  <structure_string>
O=C(C[C@H]1C[C@H](C(=O)O)Nc2cc(Cl)cc(Cl)c21)Nc1ccccc1

>  <endpoint_result>
1.48

$$$$
>  <structure_string>
O=C(Nc1ccccc1)N[C@H]1C[C@H](C(=O)O)Nc2cc(Cl)cc(Cl)c21

>  <endpoint_result>
0.87

$$$$

FYI, the data here is from ChEMBL document CHEMBL1126053.
